Recorded pIC50 for the following molecules
System: LG0703-F948-PDC complex spheroid viability
Test protocol: Anticancer human tumor LG0703-F948-PDC patient-derived lung adenocarcinoma cell line growth inhibition [RAS]
Condition description: curve of first compound; second compound 0.00949 µM
The read-out pIC50 is expressed as -log10 of concentration in moles per litre.

Molecule | pIC50
Cc1nc(N2CCC3(CC2)COC(C)C3N)c(CO)nc1Sc1ccnc(N)c1Cl (centres undefined) + CCn1c(-c2cccnc2C(C)OC)c2c3cc(ccc31)N1CCOC(CC(NC(=O)C(C(C)C)N(C)C(=O)C3(F)CCN(C(=O)C#CC(C)(C)N(C)C)CC3)C(=O)N3CCCC(N3)C(=O)OCC(C)(C)C2)C1 | 6.40

Now consider a different molecule.
Briefly, pIC50 measured for CCc1c2c(nc3ccc(O)cc13)-c1cc3c(c(=O)n1C2)COC(=O)[C@]3(O)CC + CCn1c(-c2cccnc2C(C)OC)c2c3cc(ccc31)N1CCOC(CC(NC(=O)C(C(C)C)N(C)C(=O)C3(F)CCN(C(=O)C#CC(C)(C)N(C)C)CC3)C(=O)N3CCCC(N3)C(=O)OCC(C)(C)C2)C1 : 7.20

----------
Test system: LG0703-F948-PDC complex spheroid viability
Test protocol: Anticancer human tumor LG0703-F948-PDC cell line growth inhibition [RAS]; active = viability on the fitted dose curve at most 10% of control; inactive = the rest;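 further: spheroids exposed to agents for 7 days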
Condition description: second compound 0.0949 µM; first compound 0.1 µM
Outcome (select one): active, inactive

Here are 3 compounds together with their reported answers.
Compound | Target or test system | Class
NC1c2ccccc2OC12CCN(c1cnc3c(N4CCCc5ncccc54)n[nH]c3n1)CC2 (centres undefined) + CCn1c(-c2cccnc2C(C)OC)c2c3cc(ccc31)N1CCOC(CC(NC(=O)C(C(C)C)N(C)C(=O)C3(F)CCN(C(=O)C#CC(C)(C)N(C)C)CC3)C(=O)N3CCCC(N3)C(=O)OCC(C)(C)C2)C1 | LG0703-F948-PDC complex spheroid viability | inactive
C=CC(=O)N1CCN(c2nc(OCC3CCCN3C)nc3c(F)c(-c4nc(N)cc(C)c4C(F)(F)F)c(Cl)cc23)C(C)C1 (centres undefined) + CCn1c(-c2cccnc2C(C)OC)c2c3cc(ccc31)N1CCOC(CC(NC(=O)C(C(C)C)N(C)C(=O)C3(F)CCN(C(=O)C#CC(C)(C)N(C)C)CC3)C(=O)N3CCCC(N3)C(=O)OCC(C)(C)C2)C1 | LG0703-F948-PDC complex spheroid viability | inactive
Cc1nc(N2CCC3(CC2)COC(C)C3N)c(CO)nc1Sc1ccnc(N)c1Cl (centres undefined) + CCn1c(-c2cc(N3CCN(C)CC3)cnc2C(C)OC)c2c3cc(ccc31)-c1csc(n1)CC(NC(=O)C1CC1C)C(=O)N1CCCC(N1)C(=O)OCC(C)(C)C2 | LG0703-F948-PDC complex spheroid viability | active

**Q:** Any idea what this test logged for Cc1nc(N2CCC3(CC2)COC(C)C3N)c(CO)nc1Sc1ccnc(N)c1Cl (centres undefined) + CCn1c(-c2cccnc2C(C)OC)c2c3cc(ccc31)N1CCOC(CC(NC(=O)C(C(C)C)N(C)C(=O)C3(F)CCN(C(=O)C#CC(C)(C)N(C)C)CC3)C(=O)N3CCCC(N3)C(=O)OCC(C)(C)C2)C1 ?
**A:** inactive

----------
Recorded viability, T/C for the following compounds
Tested on: LG0703-F948-PDC complex spheroid viability
Test protocol: Anticancer human tumor LG0703-F948-PDC cell line growth inhibition [RAS];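 further: spheroids exposed to agents for 7 days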;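 on viability, T/C: 100% = DMSO vehicle wells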
Condition description: second compound 0.000949 µM; first compound 0.0316 µM; stronger effect = lower value
Give just the numeric value; % need not be written.

Example compounds with recorded viability, T/C:
Compound | viability, T/C, %
NC1c2ccccc2OC12CCN(c1cnc3c(N4CCCc5ncccc54)n[nH]c3n1)CC2 (stereo not given) + CCn1c(-c2cc(N3CCN(C)CC3)cnc2C(C)OC)c2c3cc(ccc31)-c1csc(n1)CC(NC(=O)C1CC1C)C(=O)N1CCCC(N1)C(=O)OCC(C)(C)C2 | 30.3
Nc1ccn(C2OC(CO)C(O)C2(F)F)c(=O)n1 (stereo not given) + CCn1c(-c2cccnc2C(C)OC)c2c3cc(ccc31)N1CCOC(CC(NC(=O)C(C(C)C)N(C)C(=O)C3(F)CCN(C(=O)C#CC(C)(C)N(C)C)CC3)C(=O)N3CCCC(N3)C(=O)OCC(C)(C)C2)C1 | 36.9
C=CC(=O)Nc1cc(Nc2nccc(-c3cn(C)c4ccccc34)n2)c(OC)cc1N(C)CCN(C)C + CCn1c(-c2cccnc2C(C)OC)c2c3cc(ccc31)N1CCOC(CC(NC(=O)C(C(C)C)N(C)C(=O)C3(F)CCN(C(=O)C#CC(C)(C)N(C)C)CC3)C(=O)N3CCCC(N3)C(=O)OCC(C)(C)C2)C1 | 27.3
CCC(CC)c1cc(NC2CCC(N)C2)n2nccc2n1 (stereo not given) + CCn1c(-c2cc(N3CCN(C)CC3)cnc2C(C)OC)c2c3cc(ccc31)-c1csc(n1)CC(NC(=O)C1CC1C)C(=O)N1CCCC(N1)C(=O)OCC(C)(C)C2 | 72.3

Now consider a different compound.
Briefly, viability, T/C measured for CC(=O)OC12COC1CC(O)C1(C)C(=O)C(O)C3=C(C)C(OC(=O)C(O)C(NC(=O)OC(C)(C)C)c4ccccc4)CC(O)(C(OC(=O)c4ccccc4)C21)C3(C)C (stereo not given) + CCn1c(-c2cccnc2C(C)OC)c2c3cc(ccc31)N1CCOC(CC(NC(=O)C(C(C)C)N(C)C(=O)C3(F)CCN(C(=O)C#CC(C)(C)N(C)C)CC3)C(=O)N3CCCC(N3)C(=O)OCC(C)(C)C2)C1 : 40.1

----------
Test system: LG0703-F948-PDC complex spheroid viability
Test protocol: Anticancer human tumor LG0703-F948-PDC cell line growth inhibition [RAS];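 further: spheroids exposed to agents for 7 days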;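 on viability, T/C: 100% = DMSO vehicle wells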
Condition description: second compound 0.0949 µM; first compound 0.1 µM; stronger effect = lower value
Recorded viability, T/C for the following compounds

Briefly, viability, T/C measured for CCC(CC)c1cc(NC2CCC(N)C2)n2nccc2n1 (centres undefined) + CCn1c(-c2cc(N3CCN(C)CC3)cnc2C(C)OC)c2c3cc(ccc31)-c1csc(n1)CC(NC(=O)C1CC1C)C(=O)N1CCCC(N1)C(=O)OCC(C)(C)C2 : 10.2%

Briefly, viability, T/C measured for C=CC(=O)Nc1cc(Nc2nccc(-c3cn(C)c4ccccc34)n2)c(OC)cc1N(C)CCN(C)C + CCn1c(-c2cccnc2C(C)OC)c2c3cc(ccc31)N1CCOC(CC(NC(=O)C(C(C)C)N(C)C(=O)C3(F)CCN(C(=O)C#CC(C)(C)N(C)C)CC3)C(=O)N3CCCC(N3)C(=O)OCC(C)(C)C2)C1 : 14.9%

Briefly, viability, T/C measured for C=CC(=O)Nc1cc(Nc2nccc(-c3cn(C)c4ccccc34)n2)c(OC)cc1N(C)CCN(C)C + CCn1c(-c2cc(N3CCN(C)CC3)cnc2C(C)OC)c2c3cc(ccc31)-c1csc(n1)CC(NC(=O)C1CC1C)C(=O)N1CCCC(N1)C(=O)OCC(C)(C)C2 : 5.15%

Briefly, viability, T/C measured for C[C@@H](NC(=O)c1ncnc(N)c1Cl)c1ncc(C(=O)Nc2cc(C(F)(F)F)c(Cl)cn2)s1 + CCn1c(-c2cccnc2C(C)OC)c2c3cc(ccc31)N1CCOC(CC(NC(=O)C(C(C)C)N(C)C(=O)C3(F)CCN(C(=O)C#CC(C)(C)N(C)C)CC3)C(=O)N3CCCC(N3)C(=O)OCC(C)(C)C2)C1 : 71.1%

----------
System: LG0703-F948-PDC complex spheroid viability
Test protocol: Anticancer human tumor LG0703-F948-PDC cell line growth inhibition [RAS];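 further: spheroids exposed to agents for 7 days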;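 on viability, T/C: 100% = DMSO vehicle wells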
Condition description: second compound 0.000949 µM; first compound 0.1 µM; stronger effect = lower value
Recorded viability, T/C for the following compounds
Give just the numeric value; % need not be written.

Example compounds with recorded viability, T/C:
Compound | viability, T/C / %
C=CC(=O)Nc1cc(Nc2nccc(-c3cn(C)c4ccccc34)n2)c(OC)cc1N(C)CCN(C)C + CCn1c(-c2cccnc2C(C)OC)c2c3cc(ccc31)N1CCOC(CC(NC(=O)C(C(C)C)N(C)C(=O)C3(F)CCN(C(=O)C#CC(C)(C)N(C)C)CC3)C(=O)N3CCCC(N3)C(=O)OCC(C)(C)C2)C1 | 20.5
CC(Nc1ccc2c(c1)OCCn1cc(N3C(=O)OCC3C(F)F)nc1-2)C(N)=O (stereo not given) + CCn1c(-c2cc(N3CCN(C)CC3)cnc2C(C)OC)c2c3cc(ccc31)-c1csc(n1)CC(NC(=O)C1CC1C)C(=O)N1CCCC(N1)C(=O)OCC(C)(C)C2 | 55
CC(C)n1nc(-c2ccc3oc(N)nc3c2)c2c(N)ncnc21 + CCn1c(-c2cccnc2C(C)OC)c2c3cc(ccc31)N1CCOC(CC(NC(=O)C(C(C)C)N(C)C(=O)C3(F)CCN(C(=O)C#CC(C)(C)N(C)C)CC3)C(=O)N3CCCC(N3)C(=O)OCC(C)(C)C2)C1 | 19.9

Briefly, viability, T/C measured for CC(C)NCC(C(=O)N1CCN(c2ncnc3c2C(C)CC3O)CC1)c1ccc(Cl)cc1 (stereo not given) + CCn1c(-c2cc(N3CCN(C)CC3)cnc2C(C)OC)c2c3cc(ccc31)-c1csc(n1)CC(NC(=O)C1CC1C)C(=O)N1CCCC(N1)C(=O)OCC(C)(C)C2 : 54
